Reference source for all entries: ChEMBL document CHEMBL1949526

// values below are reported clearance
Test: Clearance in monkey at 3 mg/kg, iv
Assay type: ADME, organism-based, Macaca mulatta
Design: dose 3 mg/kg, route intravenous
Settings: rhesus monkey, in vivo
propertyMeasured: clearance (mL/min/kg)

[
  {
    "compound": "COc1cc(/C=C2\\CCCN3C2=NO[C@]3(CO)c2ccc(F)cc2)ccc1-n1cnc(C)c1",
    "endpointUnit": "mL/min/kg",
    "measuredResult": 6
  },
  {
    "compound": "COc1cc(/C=C2\\CCCN3C2=NOC[C@@H]3c2cc(F)c(F)c(F)c2)ccc1-n1cnc(C)c1",
    "endpointUnit": "mL/min/kg",
    "measuredResult": 11
  },
  {
    "compound": "COc1cc(/C=C2\\CCCN3C2=NOC3(C)c2ccc(F)cc2)ccc1-n1cnc(C)c1 (single isomer, unassigned)",
    "endpointUnit": "mL/min/kg",
    "measuredResult": 7.3
  }
]
